# System: HOP-62 NSCLC
# ASSAY PROCEDURE: NCI tumour cell line growth inhibition, 48 h
EXPERIMENTAL READOUT: TGI

// known answers, use as guide
| COMPOUND | TGI |
| --- | --- |
| c1ccc(C2N=NN(c3ccccc3)C2N2CCCCC2)cc1 (centres undefined) | > 100 µM |
| O=C(Nc1sccc1S(=O)(=O)c1ccc(Cl)cc1)c1ccc(Cl)cc1 | > 100 µM |

Enquiry: Report TGI for CCC1=C(CC)C1(C#N)[N+](=O)[O-] please.
Return: > 100 µM

Enquiry: Same question, CCN(Cc1ccccn1)c1ccc(CO)c(Cl)c1 this time
Return: > 100 µM

Enquiry: Same question, CCn1nc(-c2ccc(C(=O)OC)cc2)nc2c(=O)n(C)c(=O)nc1-2 this time
Return: 2.58 µM

Enquiry: Same question, Cc1ccc(N2CN3OC(=O)N(c4ccccc4)[C@@]3(c3ccccc3)C2)cc1 this time
Return: > 100 µM

Enquiry: Same question, COc1ccc([C@H]2CC(=O)C[C@H](c3ccc(OC)cc3OC)C23C(=O)c2ccccc2C3=O)c(OC)c1 this time
Return: > 100 µM

Enquiry: Same question, NCCNC1=CC(=O)c2nc3ccccc3c3ccnc1c23 this time
Return: 6.41 µM

Enquiry: Same question, C(CCCCc1nnc(N2CCOCC2)o1)CCCc1nnc(N2CCOCC2)o1 this time
Return: > 100 µM

Enquiry: Same question, COC(=O)C(CCCCCCCC(C(=O)OC)c1nc2n(c1O)C(=N)N=N2)c1nc2n(c1O)C(=N)N=N2 (centres undefined) this time
Return: > 100 µM

Enquiry: Same question, c1ccc2nc(-c3ccc4c(c3)OCO4)ccc2c1 this time
Return: 79.5 µM

Enquiry: Same question, CCCC(=O)OCC1OC(n2cnc3c(=S)nc(N)[nH]c32)C(OC(=O)CCC)C1OC(=O)CCC (centres undefined) this time
Return: 15 µM

Enquiry: Same question, COc1cc(OC)c2nc3occc3c(OC)c2c1 this time
Return: > 100 µM

Enquiry: Same question, OC1CCCCCCCCCCC1SCCCCl (centres undefined) this time
Return: > 100 µM

====

# Tested on: SNB-19 CNS
# ASSAY PROCEDURE: NCI tumour cell line growth inhibition, 48 h
EXPERIMENTAL READOUT: TGI

// known answers, use as guide
| MOLECULE | TGI |
| --- | --- |
| C/C(=N\OCC(O)CNC(C)C)c1ccc2c(c1)NC(=O)CS2 (stereo not drawn) | > 100 µM |
| C=CCN(N=O)C(=O)NCCCC(NC(C)=O)C(=O)NCc1ccccc1 (stereo not drawn) | > 100 µM |
| Cc1noc(C)c1-n1nc2ccc3nonc3c2n1 | > 76.4 µM |
| N#C/C(=C1C=C/C(=N/O)C(Cl)=C/1)c1ccc(Cl)cc1 | > 100 µM |
| COc1ccc([C@H]2CC(=O)C[C@H](c3ccc(OC)cc3OC)C23C(=O)c2ccccc2C3=O)c(OC)c1 | > 100 µM |

Kindly review the next molecule as well.
Enquiry: Please state recorded TGI (tested on SNB-19 CNS) of NC(=O)c1c(Br)n(C2OC(CO)C(O)C2O)c2ncnc(N)c12 (stereo not drawn)
Return: 59.8 µM

====

# Tested on: U251 CNS
# ASSAY PROCEDURE: NCI tumour cell line growth inhibition, 48 h
EXPERIMENTAL READOUT: TGI

// known answers, use as guide
| MOLECULE | TESTED TARGET | TGI |
| --- | --- | --- |
| Oc1ccc[n+](Cc2ccccc2)c1 | U251 CNS | > 100 µM |
| O=C1C(Cl)C(c2cc(Br)ccc2O)N1n1cnc2ccccc2c1=O (centres undefined) | U251 CNS | > 100 µM |
| COc1cc([C@@H]2c3cc4c(c(O[C@@H]5O[C@H]6CO[C@@H](C)O[C@H]6[C@H](O)[C@@H]5O)c3C[C@H]3COC(=O)[C@@H]32)OCO4)cc(OC)c1O | U251 CNS | > 46.8 µM |
| CCCNC1=C(C)C(=O)C2=C(C1=O)[C@H](COC(N)=O)[C@]1(OC)[C@@H]3N[C@@H]3CN21 | U251 CNS | 40.6 µM |
| O=C(CCN1CCOCC1)c1ccc(Oc2ccc(F)cc2)cc1 | U251 CNS | > 100 µM |

Enquiry: Report TGI for O=C1CSC(c2cccc(Cl)c2)N1c1ccc(-n2c(-c3ccccc3)nc3ccccc3c2=O)cc1 (centres undefined) please.
Return: > 100 µM

Enquiry: Same question, N#Cc1cnc(=O)n(C2CC(O)C(CO)O2)c1 (centres undefined) this time
Return: > 100 µM
